Values compiled from paper PMC8236452.

- EXPERIMENT NOTES: Urine pharmacokinetics (Ae0–24, CLR) after a single oral dose of rucaparib 600 mg in patients with advanced solid tumors
- Assay type: in vivo, human
- CONDITIONS: human, urine, po, 600 mg, Child–Pugh severe hepatic impairment; single oral rucaparib 600 mg; read-out: CLR, Median (min–max)
MEASURED PROPERTY: CL renal (mL/min)
Use mL/min as the unit, but write only the number.

So what does the record say about CL renal for CNCc1ccc(-c2[nH]c3cc(F)cc4c3c2CCNC4=O)cc1 ? 20.1

* * *

- EXPERIMENT NOTES: Urine pharmacokinetics (Ae0–24, CLR) after a single oral dose of rucaparib 600 mg in patients with advanced solid tumors
- Type: in vivo, human
- CONDITIONS: human, urine, po, 600 mg, NCI-ODWG moderate hepatic impairment; single oral rucaparib 600 mg; read-out: CLR, Mean (SD)
MEASURED PROPERTY: CL renal (mL/min)
Use mL/min as the unit, but write only the number.

So what does the record say about CL renal for CNCc1ccc(-c2[nH]c3cc(F)cc4c3c2CCNC4=O)cc1 ? 46.2

* * *

- EXPERIMENT NOTES: Plasma pharmacokinetics after a single oral dose of rucaparib 600 mg in patients with advanced solid tumors, by hepatic function group
- CONDITIONS: human, plasma, po, 600 mg, AUC0–last, Mean (SD), Child–Pugh moderate hepatic impairment; single oral rucaparib 600 mg
MEASURED PROPERTY: AUC(0-t) (ng·h/mL)
Use ng·h/mL as the unit, but write only the number.

So what does the record say about AUC(0-t) for CNCc1ccc(-c2[nH]c3cc(F)cc4c3c2CCNC4=O)cc1 ? 24100

* * *

- EXPERIMENT NOTES: Plasma pharmacokinetics after a single oral dose of rucaparib 600 mg in patients with advanced solid tumors, by hepatic function group
- CONDITIONS: human, plasma, po, 600 mg, AUC0–inf, GM, NCI-ODWG normal hepatic function; single oral rucaparib 600 mg
MEASURED PROPERTY: AUC(0-inf) (ng·h/mL)
Use ng·h/mL as the unit, but write only the number.

So what does the record say about AUC(0-inf) for CNCc1ccc(-c2[nH]c3cc(F)cc4c3c2CCNC4=O)cc1 [rucaparib] ? 13700

* * *

- EXPERIMENT NOTES: Plasma pharmacokinetics after a single oral dose of rucaparib 600 mg in patients with advanced solid tumors, by hepatic function group
- CONDITIONS: human, plasma, po, 600 mg, Cmax, GM, NCI-ODWG moderate hepatic impairment; single oral rucaparib 600 mg
MEASURED PROPERTY: Cmax (ng/mL)
Use ng/mL as the unit, but write only the number.

So what does the record say about Cmax for CNCc1ccc(-c2[nH]c3cc(F)cc4c3c2CCNC4=O)cc1 ? 583

* * *

- EXPERIMENT NOTES: Plasma pharmacokinetics after a single oral dose of rucaparib 600 mg in patients with advanced solid tumors, by hepatic function group
- CONDITIONS: human, plasma, po, 600 mg, AUC0–inf, Median (min–max), Child–Pugh moderate hepatic impairment; single oral rucaparib 600 mg
MEASURED PROPERTY: AUC(0-inf) (ng·h/mL)
Use ng·h/mL as the unit, but write only the number.

So what does the record say about AUC(0-inf) for CNCc1ccc(-c2[nH]c3cc(F)cc4c3c2CCNC4=O)cc1 ? 21100
